# TARGET_OR_TEST_SYSTEM: STAT4 (Homo sapiens)
# Sequence (Q14765 1-748): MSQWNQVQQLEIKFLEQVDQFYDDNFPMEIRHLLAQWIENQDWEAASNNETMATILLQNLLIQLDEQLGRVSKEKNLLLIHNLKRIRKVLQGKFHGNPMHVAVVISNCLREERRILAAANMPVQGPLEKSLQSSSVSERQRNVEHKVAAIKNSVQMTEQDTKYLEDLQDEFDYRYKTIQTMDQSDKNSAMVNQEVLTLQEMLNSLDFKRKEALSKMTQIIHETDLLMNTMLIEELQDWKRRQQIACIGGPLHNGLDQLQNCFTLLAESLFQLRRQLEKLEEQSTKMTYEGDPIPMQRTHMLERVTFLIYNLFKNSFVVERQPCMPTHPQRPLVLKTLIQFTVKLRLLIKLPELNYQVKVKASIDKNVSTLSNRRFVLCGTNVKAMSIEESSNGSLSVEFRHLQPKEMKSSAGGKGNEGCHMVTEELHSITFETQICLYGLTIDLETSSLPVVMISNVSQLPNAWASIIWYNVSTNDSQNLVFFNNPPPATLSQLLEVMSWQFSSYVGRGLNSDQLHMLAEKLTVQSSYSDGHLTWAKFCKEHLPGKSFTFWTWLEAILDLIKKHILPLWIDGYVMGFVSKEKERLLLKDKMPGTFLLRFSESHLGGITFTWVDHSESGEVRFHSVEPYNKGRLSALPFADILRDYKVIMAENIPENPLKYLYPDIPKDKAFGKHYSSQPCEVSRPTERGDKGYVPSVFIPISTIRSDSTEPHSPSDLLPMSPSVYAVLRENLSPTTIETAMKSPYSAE
Kindly supply the reported Ki values for the records listed here.
Please give a number only; it is taken to be in nM.

Prompt: Given the entry NC(=O)c1cc(-c2ccc(C(F)(F)P(=O)(O)O)c(F)c2)cs1 [Compound 8g] , report its measured Ki.
Completion: 11000

Prompt: # query: Ki of entry O=P(O)(O)Oc1ccc(-c2ccc3ccccc3c2)cc1F [Compound 6m]
Completion: 350

Prompt: I'd like to know its Ki. The compound in question is N#Cc1ccccc1-c1ccc(OP(=O)(O)O)cc1 [Compound 6c]
Completion: 2700

====

# TARGET_OR_TEST_SYSTEM: wild‐type STAT4 (Homo sapiens)
# Construct: 6xHis
# Sequence (Q14765 1-748): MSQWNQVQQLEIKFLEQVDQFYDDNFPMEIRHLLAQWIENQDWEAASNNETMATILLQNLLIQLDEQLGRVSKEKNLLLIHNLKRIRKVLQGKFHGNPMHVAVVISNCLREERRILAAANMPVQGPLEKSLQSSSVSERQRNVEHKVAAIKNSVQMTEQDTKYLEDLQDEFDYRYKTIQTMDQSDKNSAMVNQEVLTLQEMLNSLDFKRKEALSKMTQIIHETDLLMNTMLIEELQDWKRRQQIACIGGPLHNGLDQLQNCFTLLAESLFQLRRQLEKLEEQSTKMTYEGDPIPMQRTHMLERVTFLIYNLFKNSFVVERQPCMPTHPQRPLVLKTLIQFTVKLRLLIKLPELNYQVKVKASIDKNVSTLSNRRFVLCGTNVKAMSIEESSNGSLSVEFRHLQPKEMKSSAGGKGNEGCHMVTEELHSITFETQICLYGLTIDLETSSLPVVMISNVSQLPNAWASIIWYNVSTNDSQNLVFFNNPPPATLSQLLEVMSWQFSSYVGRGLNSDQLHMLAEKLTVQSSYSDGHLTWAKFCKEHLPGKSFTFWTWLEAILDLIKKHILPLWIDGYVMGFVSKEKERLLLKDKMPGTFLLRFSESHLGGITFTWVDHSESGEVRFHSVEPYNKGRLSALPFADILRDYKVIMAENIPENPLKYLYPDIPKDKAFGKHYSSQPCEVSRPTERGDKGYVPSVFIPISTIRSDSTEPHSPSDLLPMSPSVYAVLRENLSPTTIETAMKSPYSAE
# EXPERIMENT: Isothermal titration calorimetry (ITC), wild-type STAT4
# ASSAY_CONTEXT: ITC, 25 °C, one-site binding model; read-out: K d (ITC), wild-type STAT4
Exercise: state measured pKd for each of the molecules provided.
Just so you know, pKd here is -log10 of the concentration in molar units; reply with that number alone.

Prompt: Observed pKd on wild‐type STAT4 (Homo sapiens) for O=P(O)(O)Oc1ccc(-c2ccc3ccccc3c2)cc1F [Compound 6m] , please.
Completion: 5.89

Prompt: pKd of Cc1cc(-c2ccc(C(F)(F)P(=O)(O)O)c(F)c2)cs1 [Compound 8k] on wild‐type STAT4 (Homo sapiens)?
Completion: 5.15
